molecular target: Aurora A proteins (Homo sapiens, UniProt O14965); construct: endogenous in cells; host or cells: MM.1S; assay: Degradation of Aurora A protein in MM.1S cell lines (Western blot densitometry); format: cell-based; settings: MM1.S, 24 h, read-out: Aurora A degrading capacity (%)
Sequence (O14965 whole entry): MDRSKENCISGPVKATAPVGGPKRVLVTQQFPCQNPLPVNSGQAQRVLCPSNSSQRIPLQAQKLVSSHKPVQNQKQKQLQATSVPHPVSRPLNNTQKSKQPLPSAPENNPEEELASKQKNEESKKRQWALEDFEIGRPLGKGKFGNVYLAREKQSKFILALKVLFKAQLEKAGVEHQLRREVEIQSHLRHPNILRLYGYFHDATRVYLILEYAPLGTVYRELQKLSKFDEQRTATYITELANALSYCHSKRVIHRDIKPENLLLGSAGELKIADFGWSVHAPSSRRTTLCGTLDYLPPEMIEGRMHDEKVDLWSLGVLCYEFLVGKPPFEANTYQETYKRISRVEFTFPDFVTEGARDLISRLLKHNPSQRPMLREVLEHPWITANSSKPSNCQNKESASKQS
Quantity: Aurora A degradation (%) at 5 µM

Some compounds with recorded Aurora A degradation (%) at 5 µM:
Compound: COc1cc(Nc2ncc3c(n2)-c2ccc(Cl)cc2C(c2c(F)cccc2OC)=NC3)ccc1C(=O)NCCCCCC(=O)Nc1cccc(C#CCN)c1
Aurora A degradation (%) at 5 µM: > 70%
--
Compound: COc1cc(Nc2ncc3c(n2)-c2ccc(Cl)cc2C(c2c(F)cccc2OC)=NC3)ccc1C(=O)NCCCCCC(=O)Nc1ccc(C#CCN)cc1
Aurora A degradation (%) at 5 µM: > 70%
--
Compound: COC(=O)c1ccc(C#CCNC(=O)c2ccc(Nc3ncc4c(n3)-c3ccc(Cl)cc3C(c3c(F)cccc3OC)=NC4)cc2OC)cc1C#CCN
Aurora A degradation (%) at 5 µM: > 70%
--
Compound: COC(=O)c1ccc(NC(=O)CCCNC(=O)c2ccc(Nc3ncc4c(n3)-c3ccc(Cl)cc3C(c3c(F)cccc3OC)=NC4)cc2OC)cc1C#CCN
Aurora A degradation (%) at 5 µM: 40 to 70%
--
Compound: COC(=O)c1ccc(C#CCNC(=O)C2CCN(C(=O)c3ccc(Nc4ncc5c(n4)-c4ccc(Cl)cc4C(c4c(F)cccc4OC)=NC5)cc3OC)CC2)cc1C#CCN
Aurora A degradation (%) at 5 µM: > 70%
--
Compound: COC(=O)c1ccc(N2CCN(C(=O)CCNC(=O)c3ccc(Nc4ncc5c(n4)-c4ccc(Cl)cc4C(c4c(F)cccc4OC)=NC5)cc3OC)CC2)cc1C#CCN
Aurora A degradation (%) at 5 µM: 40 to 70%
--
Compound: COc1cc(Nc2ncc3c(n2)-c2ccc(Cl)cc2C(c2c(F)cccc2OC)=NC3)ccc1C(=O)NCC#Cc1ccc(C#CCN)o1
Aurora A degradation (%) at 5 µM: > 70%
--
Compound: COC(=O)c1ccc(N2CCN(CC3CCN(C(=O)c4ccc(Nc5ncc6c(n5)-c5ccc(Cl)cc5C(c5c(F)cccc5OC)=NC6)cc4OC)CC3)CC2)cc1C#CCN
Aurora A degradation (%) at 5 µM: > 70%
--
Compound: COc1cc(Nc2ncc3c(n2)-c2ccc(Cl)cc2C(c2c(F)cccc2OC)=NC3)ccc1C(=O)Nc1ccc(C#CC(N)CO)cc1 (stereo not shown)
Aurora A degradation (%) at 5 µM: > 70%
--
Compound: COc1cc(Nc2ncc3c(n2)-c2ccc(Cl)cc2C(c2c(F)cccc2OC)=NC3)ccc1C(=O)NCCCNC(=O)c1ccc(C#CCN)o1
Aurora A degradation (%) at 5 µM: < 40%

Exam item: Find the recorded Aurora A degradation (%) at 5 µM belonging to COc1cc(Nc2ncc3c(n2)-c2ccc(Cl)cc2C(c2c(F)cccc2OC)=NC3)ccc1C(=O)NCCCC(=O)Nc1ccc(-c2cnc(C(F)(F)F)nc2)c(C#CCN)c1 and report it.
Marked response: > 70%

Exam item: Fill in the blank: the reported Aurora A degradation (%) at 5 µM of COC(=O)c1ccc(N2CC3(CN(C(=O)c4ccc(Nc5ncc6c(n5)-c5ccc(Cl)cc5C(c5c(F)cccc5OC)=NC6)cc4OC)C3)C2)cc1C#CCN is ____.
Marked response: > 70%

Exam item: Suppose we examine the compound COc1cc(Nc2ncc3c(n2)-c2ccc(Cl)cc2C(c2c(F)cccc2OC)=NC3)ccc1C(=O)Nc1ccc(C#CCN)cc1 ; what Aurora A degradation (%) at 5 µM value has been reported?
Marked response: > 70%
